target: Neuraminidase (Influenza A virus (strain A/Wilson-Smith/1933 H1N1) (Influenza A virus(strain A/WS/1933 H1N1)), UniProt P03470); experiment: Inhibition of MDCK infected Influenza A virus A/WSN/33(H1N1) neuraminidase using MU-NANA as substrate preincubated for 30 mins followed by substrate addition measured after 1 hr by spectrofluorometric method; type: cell-based, Influenza A virus (A/WSN/1933(H1N1))
Sequence (P03470 whole entry): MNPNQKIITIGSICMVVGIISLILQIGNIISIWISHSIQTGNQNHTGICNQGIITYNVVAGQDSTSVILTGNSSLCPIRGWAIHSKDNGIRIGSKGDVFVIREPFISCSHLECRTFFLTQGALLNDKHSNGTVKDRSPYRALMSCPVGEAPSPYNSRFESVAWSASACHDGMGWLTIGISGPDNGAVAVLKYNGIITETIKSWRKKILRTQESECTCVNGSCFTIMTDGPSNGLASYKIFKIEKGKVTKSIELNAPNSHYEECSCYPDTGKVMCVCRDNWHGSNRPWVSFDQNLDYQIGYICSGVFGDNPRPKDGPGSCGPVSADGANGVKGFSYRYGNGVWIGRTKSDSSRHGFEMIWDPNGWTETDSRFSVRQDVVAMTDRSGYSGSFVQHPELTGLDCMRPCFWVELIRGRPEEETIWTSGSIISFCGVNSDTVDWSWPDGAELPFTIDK
Kindly apply the following: yes if IC50 is less than 10 nM, no in every other case.

smiles_str: COc1ccccc1-c1cn(CC(=O)NC(=N)N[C@H]2C=C(C(=O)O)O[C@@H]([C@H](O)[C@H](O)CO)[C@@H]2NC(C)=O)nn1
qualitative_label: yes
--
smiles_str: CC(=O)N[C@H]1[C@H]([C@H](O)[C@H](O)CO)OC(C(=O)O)=C[C@@H]1NC(=N)NC(=O)Cn1cc(C2CCCCC2)nn1
qualitative_label: yes
--
smiles_str: CC(=O)N[C@H]1[C@H]([C@H](O)[C@H](O)CO)OC(C(=O)O)=C[C@@H]1NC(=N)NC(=O)CSc1ccc2ccccc2c1
qualitative_label: no
--
smiles_str: CCOC(=O)c1cccc(-c2cn(CC(=O)NC(=N)N[C@H]3C=C(C(=O)O)O[C@@H]([C@H](O)[C@H](O)CO)[C@@H]3NC(C)=O)nn2)c1
qualitative_label: no
--
smiles_str: CC(=O)N[C@H]1[C@H]([C@H](O)[C@H](O)CO)OC(C(=O)O)=C[C@@H]1NC(=N)NC(=O)Cn1cc(-c2ccc(Cl)cc2)nn1
qualitative_label: no
